Give pEC50 for every item shown.
Biological target: human β3 adrenergic receptor (Homo sapiens, UniProt P13945)
Construct: expressed in transfected cells; host or cells: Chinese hamster ovary (CHO) cells, stably transfected
Sequence (P13945 whole entry): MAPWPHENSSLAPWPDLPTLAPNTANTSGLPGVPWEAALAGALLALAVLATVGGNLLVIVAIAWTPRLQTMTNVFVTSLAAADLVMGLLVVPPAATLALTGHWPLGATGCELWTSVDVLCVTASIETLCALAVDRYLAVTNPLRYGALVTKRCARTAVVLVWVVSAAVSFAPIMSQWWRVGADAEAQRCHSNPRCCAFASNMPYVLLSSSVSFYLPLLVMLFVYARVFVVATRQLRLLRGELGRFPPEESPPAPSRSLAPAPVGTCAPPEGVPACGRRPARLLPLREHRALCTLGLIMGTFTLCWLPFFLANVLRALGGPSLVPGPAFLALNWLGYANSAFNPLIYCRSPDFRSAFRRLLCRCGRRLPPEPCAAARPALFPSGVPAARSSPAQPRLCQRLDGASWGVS
Assay: Beta-3 agonist in vitro functional assay: cAMP production (LANCE TR-FRET) in CHO cells stably transfected with the cloned β3 receptor
Type: cell-based
Settings: given as a range; cAMP, CHO cells; read-out: human β3 functional activity
pEC50: −log10 of the molar value. Structures can show the parent of a compound that is named as a salt.

Compound | Observed
O=C(c1ccc(C[C@@H]2CC[C@H]([C@H](O)c3ccccc3)N2)cc1)N1CCC2(CCOC2=O)CC1 [Example 239] | 8.00 to 9.00
O=C(c1ccc(C[C@@H]2CC[C@H]([C@H](O)c3ccccc3)N2)cc1)N1CCC2(CC1)CC(C1CC1)OC2=O (single isomer, unassigned) [Ex. 553] | 8.00 to 9.00
O=C(c1ccc(C[C@@H]2CC[C@H]([C@H](O)c3ccccc3)N2)cc1)N1C[C@@H]2[C@H](C1)[C@H]2c1nnco1 [Example 170] | 8.00 to 9.00
O=C(c1ccc(C[C@@H]2CC[C@H]([C@H](O)c3ccccc3)N2)cc1)N1CCC(n2cccn2)CC1 [Example 64] | 7.00 to 8.00
O=C(c1ccc(C[C@@H]2CC[C@H]([C@H](O)c3cccnc3)N2)cc1)N1CCC(n2cccn2)CC1 [Example 65] | 6.00 to 7.00
O=C(c1ccc(C[C@@H]2CC[C@H]([C@H](O)c3ccccc3)N2)cc1)N1CCC(c2cscn2)CC1 [Example 66] | 7.00 to 8.00

Hello, I would appreciate it if you could give pEC50 for each entry below.
1. O=C(c1ccc(C[C@@H]2CC[C@H]([C@H](O)c3ccccc3)N2)cc1)N1C2CCC1C1CCC2N1Cc1ccccn1 [Example 524]
2. O=C(c1ccc(C[C@@H]2CC[C@H]([C@H](O)c3ccccc3)N2)cc1)N1C[C@@H]2C(n3cnnn3)[C@@H]2C1 (some centres unmarked) [Example 169]
3. O=C(c1ccc(CC2CCC(C(O)c3ccccc3)N2)cc1)N1CCC2(CC1)CC(C1CC1)OC2=O (single isomer, unassigned) [Ex. 554]
4. CC(C(=O)N1CCC(F)(F)C1)N1CCN(C(=O)c2ccc(C[C@@H]3CC[C@H]([C@H](O)c4ccccc4)N3)cc2)CC1 (some centres unmarked) [Example 432, TFA salt]
5. O=C(c1ccc(C[C@@H]2CC[C@H]([C@H](O)c3ccccc3)N2)cc1)N1CC2CC(n3cccn3)CC2C1 (some centres unmarked) [Example 1]

Reply:
7.00 to 8.00
8.00 to 9.00
8.00 to 9.00
7.00 to 8.00
7.00 to 8.00

###

Molecular target: human β3 adrenergic receptor (Homo sapiens)
Construct: expressed in transfected cells; host or cells: Chinese hamster ovary (CHO) cells, stably transfected
Test: Beta-3 agonist in vitro functional assay: cAMP production (LANCE TR-FRET) in CHO cells stably transfected with the cloned β3 receptor
Type: cell-based
Details: Table 5; cAMP, CHO cells; read-out: Human β3 agonist functional activity
For each record, write down the corresponding EC50.

Worked set:
Substance smiles | Endpoint | Observed
Cn1nnc(C2CCN(C(=O)c3ccc(C[C@@H]4CC[C@H]([C@H](O)c5ccccc5)N4)cc3)CC2)n1 | EC50 | 10 to 99.9 nM
Cc1nnnn1C1CCN(C(=O)c2ccc(C[C@@H]3CC[C@H]([C@H](O)c4ccccc4)N3)cc2)CC1 | EC50 | 1 to 9.9 nM
O=C(c1ccc(C[C@@H]2CC[C@H]([C@H](O)c3ccccc3)N2)cc1)N1CCC(Oc2cncc(Cl)n2)CC1 | EC50 | 100 to 999 nM
Cn1cnnc1C1CCN(C(=O)c2ccc(C[C@@H]3CC[C@H]([C@H](O)c4ccccc4)N3)cc2)CC1 | EC50 | 100 to 999 nM
Cc1cncnc1OC1CCN(C(=O)c2ccc(C[C@@H]3CC[C@H]([C@H](O)c4ccccc4)N3)cc2)CC1 | EC50 | 100 to 999 nM
O=C(c1ccc(C[C@@H]2CC[C@H]([C@H](O)c3ccccc3)N2)cc1)N1CCC(S(=O)(=O)c2ccc(Cl)cc2)CC1 | EC50 | 10 to 99.9 nM

# next compound below
Task item: Answer with the recorded EC50 of O=C(c1ccc(C[C@@H]2CC[C@H]([C@H](O)c3ccccc3)N2)cc1)N1CCC(Cn2cnccc2=O)CC1 only.
Reply: 100 to 999 nM

###

Biological target: human β3 adrenergic receptor (Homo sapiens, UniProt P13945)
Construct: expressed in transfected cells; host or cells: Chinese hamster ovary (CHO) cells, stably transfected
Test: Beta-3 agonist in vitro functional assay: cAMP production (LANCE TR-FRET) in CHO cells stably transfected with the cloned β3 receptor
Format: cell-based
Conditions: Table 9; Beta-3 agonist in vitro functional assay; read-out: Human β3 agonist functional activity
Kindly state EC50 for each of the entries shown.

Molecule | EC50
O=C(c1ccc(C[C@@H]2CC[C@H]([C@H](O)c3ccccc3)N2)cc1)N1CCN(Cc2nnn[nH]2)CC1 [Example 398] | 10 to 99.9 nM
CC(C)Oc1cccnc1N1CCN(C(=O)c2ccc(C[C@@H]3CC[C@H]([C@H](O)c4ccccc4)N3)cc2)CC1 [Example 363] | 10 to 99.9 nM
O=C(c1ccc(C[C@@H]2CC[C@H]([C@H](O)c3ccccc3)N2)cc1)N1CCN(c2ccc[nH]c2=O)CC1 [Example 387] | 10 to 99.9 nM

Alright, here's another molecule for you.
Task item: Quickly give me recorded EC50 for O=C(O)c1ccccc1N1CCN(C(=O)c2ccc(C[C@@H]3CC[C@H]([C@H](O)c4ccccc4)N3)cc2)CC1 [Example 350]
Reply: 100 to 999 nM

###

So I've got a bunch of compounds here, and I need their pEC50 values.
Molecular target: human β3 adrenergic receptor (Homo sapiens, UniProt P13945)
Construct: expressed in transfected cells; host or cells: Chinese hamster ovary (CHO) cells, stably transfected
Experiment: Beta-3 agonist in vitro functional assay: cAMP production (LANCE TR-FRET) in CHO cells stably transfected with the cloned β3 receptor
Assay type: cell-based
Settings: Table 8; Beta-3 agonist in vitro functional assay; read-out: Human β3 agonist functional activity
pEC50: −log10 of the molar value.

Compound | Observed
O=C(c1ccc(C[C@@H]2CC[C@H]([C@H](O)c3ccccc3)N2)cc1)N1CCC2(CCOC2)CC1 | 6.00 to 7.00
CC1(c2nn[nH]n2)CCN(C(=O)c2ccc(C[C@@H]3CC[C@H]([C@H](O)c4ccccc4)N3)cc2)CC1 | 6.00 to 7.00
O=C(c1ccc(CC2CCC(C(O)c3ccccc3)N2)cc1)N1CCC2(CCCC2=NO)CC1 (centres unmarked) | 7.00 to 8.00
CCN1CCC2(CCN(C(=O)c3ccc(C[C@@H]4CC[C@H]([C@H](O)c5ccccc5)N4)cc3)CC2)C1=O | 6.00 to 7.00
Cc1ccc2c(c1)NC(=O)C21CCN(C(=O)c2ccc(C[C@@H]3CC[C@H]([C@H](O)c4ccccc4)N3)cc2)CC1 | 7.00 to 8.00

// for each compound below, give its pEC50
1. O=C(c1ccc(C[C@@H]2CC[C@H]([C@H](O)c3cccnc3)N2)cc1)N1CCC2(CC1)NC(=O)N(Cc1ccccc1)C2=O
2. Cc1ccc(CC2(O)CCN(C(=O)c3ccc(C[C@@H]4CC[C@H]([C@H](O)c5ccccc5)N4)cc3)CC2)cc1
3. O=C(c1ccc(C[C@@H]2CC[C@H]([C@H](O)c3ccccc3)N2)cc1)N1CCC2(CCCN2)CC1
4. O=C1OC2(CCN(C(=O)c3ccc(C[C@@H]4CC[C@H]([C@H](O)c5cccnc5)N4)cc3)CC2)CC1Cc1ccc(F)cc1 (some centres unmarked)

Reply:
7.00 to 8.00
7.00 to 8.00
6.00 to 7.00
8.00 to 9.00

Look at each compound and report its pEC50.
1. COc1ccc(C2(CNC(=O)C(C)(C)C)CCN(C(=O)c3ccc(C[C@@H]4CC[C@H]([C@H](O)c5cccnc5)N4)cc3)CC2)cc1
2. O=C(c1ccc(C[C@@H]2CC[C@H]([C@H](O)c3ccccc3)N2)cc1)N1CCC2(CCCC2=O)CC1

Reply:
["6.00 to 7.00", "8.00 to 9.00"]

Quick one: give me pEC50 for each item below, same order please.
1. O=C(c1ccc(C[C@@H]2CC[C@H]([C@H](O)c3ccccc3)N2)cc1)N1CCC2(CCNC2=O)CC1
2. CC1(C)CC2(CCN(C(=O)c3ccc(C[C@@H]4CC[C@H]([C@H](O)c5ccccc5)N4)cc3)CC2)CO1
3. CN1CCCC2(CCN(C(=O)c3ccc(C[C@@H]4CC[C@H]([C@H](O)c5ccccc5)N4)cc3)CC2)C1=O

Reply:
7.00 to 8.00
6.00 to 7.00
6.00 to 7.00
